Each record here notes measured Kd.
- TARGET_ENTITY: T1, human IL-6 (human, UniProt P05231 30-212)
- T1 construct: IL-6 flowed over captured antibodies
- TEST_PROTOCOL: SPR Biacore, supernatant Ab on Protein A chip, 37 C
Number only, in nM; omit the unit.

Worked cases, Kd given:
anti-IL-6 antibody, heavy chain WT / light chain M32L, M50D, N52S, M88Q (antibody, IgG1, V domains shown, Full IgG1 (Expi293); VL = variant III) VH: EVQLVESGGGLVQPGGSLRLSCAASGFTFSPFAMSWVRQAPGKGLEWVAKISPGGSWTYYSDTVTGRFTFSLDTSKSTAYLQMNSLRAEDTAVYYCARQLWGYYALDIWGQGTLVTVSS VL: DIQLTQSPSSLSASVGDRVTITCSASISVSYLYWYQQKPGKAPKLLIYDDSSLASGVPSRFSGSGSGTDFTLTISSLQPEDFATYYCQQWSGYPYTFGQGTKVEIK
0.611
anti-IL-6 antibody, heavy chain I51V, G66D / light chain M32L, M50D, N52S, M88Q (antibody, IgG1, V domains shown, Full IgG1 (Expi293); VL = variant III) VH: EVQLVESGGGLVQPGGSLRLSCAASGFTFSPFAMSWVRQAPGKGLEWVAKVSPGGSWTYYSDTVTDRFTFSLDTSKSTAYLQMNSLRAEDTAVYYCARQLWGYYALDIWGQGTLVTVSS VL: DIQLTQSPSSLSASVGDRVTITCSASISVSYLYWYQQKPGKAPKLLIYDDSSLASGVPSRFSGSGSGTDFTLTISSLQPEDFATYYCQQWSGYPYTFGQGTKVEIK
1.11
anti-IL-6 antibody, heavy chain T63S, G66D / light chain M32L, M50D, N52S, M88Q (antibody, IgG1, V domains shown, Full IgG1 (Expi293); VL = variant III) VH: EVQLVESGGGLVQPGGSLRLSCAASGFTFSPFAMSWVRQAPGKGLEWVAKISPGGSWTYYSDSVTDRFTFSLDTSKSTAYLQMNSLRAEDTAVYYCARQLWGYYALDIWGQGTLVTVSS VL: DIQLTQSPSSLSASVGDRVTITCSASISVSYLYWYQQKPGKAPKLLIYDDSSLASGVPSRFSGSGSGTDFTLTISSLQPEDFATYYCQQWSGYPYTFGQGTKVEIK
0.278
anti-IL-6 antibody, heavy chain S35E, G66D / light chain M32L, M50D, N52S, M88Q (antibody, IgG1, V domains shown, Full IgG1 (Expi293); VL = variant III) VH: EVQLVESGGGLVQPGGSLRLSCAASGFTFSPFAMEWVRQAPGKGLEWVAKISPGGSWTYYSDTVTDRFTFSLDTSKSTAYLQMNSLRAEDTAVYYCARQLWGYYALDIWGQGTLVTVSS VL: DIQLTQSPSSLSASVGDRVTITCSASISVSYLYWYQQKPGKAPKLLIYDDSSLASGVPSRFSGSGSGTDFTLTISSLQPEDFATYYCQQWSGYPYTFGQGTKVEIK
0.867

Then there is this binder:
Complete the entry with Kd for anti-IL-6 antibody, heavy chain I51T, G66D / light chain M32L, M50D, N52S, M88Q (antibody, IgG1, V domains shown, Full IgG1 (Expi293); VL = variant III) VH: EVQLVESGGGLVQPGGSLRLSCAASGFTFSPFAMSWVRQAPGKGLEWVAKTSPGGSWTYYSDTVTDRFTFSLDTSKSTAYLQMNSLRAEDTAVYYCARQLWGYYALDIWGQGTLVTVSS VL: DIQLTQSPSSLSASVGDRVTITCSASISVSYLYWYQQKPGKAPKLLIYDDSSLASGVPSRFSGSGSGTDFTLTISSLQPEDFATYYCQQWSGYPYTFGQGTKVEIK
0.233
